Test system: HCT116/VM46 (vinblastine-resistant strain of HCT116, Pgp over-expression) cells
Protocol Summary: Cell growth inhibition assay, HCT116/VM46
Measurement Context: read-out: IC50 (nM) HCT116/VM46; resistant human colon cancer cell line, Pgp over-expression
Attribute Measured: IC50 (nM)

CC[C@]1(NC(=O)NCc2ccco2)C[C@@H]2CN(CCc3c([nH]c4ccccc34)[C@@](C(=O)OC)(c3cc4c(cc3OC)N(C)[C@H]3[C@@](O)(C(=O)OC)[C@H](OC(C)=O)[C@]5(CC)C=CCN6CC[C@]43[C@@H]65)C2)C1 [Compound 34]
530
CC[C@]1(NC(=O)NC2CC2)C[C@@H]2CN(CCc3c([nH]c4ccccc34)[C@@](C(=O)OC)(c3cc4c(cc3OC)N(C)[C@H]3[C@@](O)(C(=O)OC)[C@H](OC(C)=O)[C@]5(CC)C=CCN6CC[C@]43[C@@H]65)C2)C1 [Compound 18]
85
CC[C@]1(NC(=O)N2CCN(C)CC2)C[C@@H]2CN(CCc3c([nH]c4ccccc34)[C@@](C(=O)OC)(c3cc4c(cc3OC)N(C)[C@H]3[C@@](O)(C(=O)OC)[C@H](OC(C)=O)[C@]5(CC)C=CCN6CC[C@]43[C@@H]65)C2)C1 [Compound 54]
710
CC[C@]1(NC(=O)Nc2cccc(OC)c2)C[C@@H]2CN(CCc3c([nH]c4ccccc34)[C@@](C(=O)OC)(c3cc4c(cc3OC)N(C)[C@H]3[C@@](O)(C(=O)OC)[C@H](OC(C)=O)[C@]5(CC)C=CCN6CC[C@]43[C@@H]65)C2)C1 [Compound 29]
80
CCN(CC)C(=O)N[C@@]1(CC)C[C@@H]2CN(CCc3c([nH]c4ccccc34)[C@@](C(=O)OC)(c3cc4c(cc3OC)N(C)[C@H]3[C@@](O)(C(=O)OC)[C@H](OC(C)=O)[C@]5(CC)C=CCN6CC[C@]43[C@@H]65)C2)C1 [Compound 40]
450
